# Tested on: Ishikawa
# protocol-notes: Estrogenic activity at estrogen receptor in human Ishikawa cells assessed as induction of alkaline phosphatase expression at 1 uM after 72 hrs by microplate reader relative to untreated vehicle control
# Type: cell-based
Measured Efficacy of individual entries
Provide the reading as a plain figure in %.

>>> measurement("COc1ccc(-c2coc3cc(OC(=O)NCCBr)cc(O)c3c2=O)cc1")
302

Exam item: Requested field: Efficacy. Item: `COc1ccc(-c2coc3cc(OC(=O)CCl)cc(O)c3c2=O)cc1`
Marked response: 314

Exam item: Would you mind doing `CCCCCCCCCCCNC(=O)Oc1cc(O)c2c(=O)c(-c3ccc(OC)cc3)coc2c1` as well?
Marked response: 203

====

# Species on record: Homo sapiens
# protocol-notes: Estrogenic activity at estrogen receptor in human MCF7:D5L cells co-expressing ERE assessed as induction of luciferase gene expression at 10 micoM after 16 hrs by microplate reader relative to untreated vehicle control
# Type: cell-based
Output Met for Efficacy not less than 800%; output Not met otherwise.

Check out these entries, answers already filled in.
>>> answer_label("COc1ccc(-c2coc3cc(OC(=O)NCCBr)cc(O)c3c2=O)cc1")
"Met"
>>> answer_label("COc1ccc(-c2coc3cc(OC(=O)NCCCl)cc(O)c3c2=O)cc1")
"Met"
>>> answer_label("C[C@]12CC[C@@H]3c4ccc(O)cc4CC[C@H]3[C@@H]1CC[C@@H]2O [ESTRADIOL]")
"Not met"

Exam item: Would you say `COc1ccc(-c2coc3cc(OC(=O)CCl)cc(O)c3c2=O)cc1` shows Efficacy at minimum 800%?
Marked response: Met

Exam item: Would you mind doing COc1ccc(-c2coc3cc(O)cc(O)c3c2=O)cc1 [BIOCHANIN] as well?
Marked response: Not met

Exam item: Would you mind doing `COc1ccc(-c2coc3cc(OC(=O)CBr)cc(O)c3c2=O)cc1` as well?
Marked response: Met

====

# Tested on: Ishikawa
# protocol-notes: Estrogenic activity at estrogen receptor in human Ishikawa cells assessed as induction of alkaline phosphatase expression at 1 uM after 72 hrs by microplate reader relative to untreated vehicle control
# Assay type: cell-based
Measured Efficacy of individual entries
Provide the reading as a plain figure in %.

>>> measurement("COc1ccc(-c2coc3cc(O)cc(O)c3c2=O)cc1")
310
>>> measurement("C[C@]12CC[C@@H]3c4ccc(O)cc4CC[C@H]3[C@@H]1CC[C@@H]2O")
440

Exam item: Requested field: Efficacy. Item: `COc1ccc(-c2coc3cc(OC(=O)CBr)cc(O)c3c2=O)cc1`
Marked response: 332

Exam item: Would you mind doing `COc1ccc(-c2coc3cc(OC(=O)NCCCl)cc(O)c3c2=O)cc1` as well?
Marked response: 295
